- MEASURED_ON: GST tagged LXRalpha LBD (ligand binding domain) (Homo sapiens, UniProt Q13133)
- Sequence (Q13133 209-447 limits assumed): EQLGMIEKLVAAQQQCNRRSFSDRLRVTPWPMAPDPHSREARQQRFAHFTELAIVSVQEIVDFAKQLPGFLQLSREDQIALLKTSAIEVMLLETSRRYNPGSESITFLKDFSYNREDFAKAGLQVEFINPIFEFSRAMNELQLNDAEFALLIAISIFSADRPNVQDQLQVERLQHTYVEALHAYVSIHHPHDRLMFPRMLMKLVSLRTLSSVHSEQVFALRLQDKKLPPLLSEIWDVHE
- RUN_DESCRIPTION: LanthaScreen TR-FRET Liver X Receptor Coactivator Assay, LXR alpha-LBD (co-activator recruitment; IP and % Emax relative to T0901317)
- APPLIED_CONDITIONS: Inflection Point of co-activator recruitment, LXR alpha-LBD, TR-FRET
MEASURED_METRIC: EC50 (nM)

MOLECULE	MEASURED_ON	UNIT_SPEC	RECORDED_RESULT
CN(C)C(=O)c1ccc(N2CCC(CCCN(C)C(=O)C3(C(F)(F)F)CCCO3)CC2)nc1Cl (stereo not drawn)	GST tagged LXRalpha LBD (ligand binding domain) (Homo sapiens, UniProt Q13133)	nM	2610

P: CN(C)C(=O)c1ccc(N2CCC(CCCN(C)C(=O)[C@@]3(c4ccccc4)CCCO3)CC2)nc1Cl
Q: CNC(=O)c1ccc(N2CCC3(CC2)C[C@@H]3CCN(C)C(=O)[C@](O)(c2cccc(OC)c2)C(F)(F)F)cc1Cl
R: COc1cccc([C@@](O)(C(=O)NC[C@H](C)CC2CCN(c3ccc(C(=O)N(C)C)c(Cl)n3)CC2)C(F)(F)F)c1
*Q* Rank the items in ascending order with respect to EC50. Labels, requested order.
*A* Q, P, R
(Q: 1270 nM, P: 1920 nM, R: 2890 nM)

----------
- MEASURED_ON: GST tagged LXRalpha LBD (ligand binding domain) (Homo sapiens, UniProt Q13133)
- Construct: purchased Invitrogen pv4655
- Sequence (Q13133 209-447 limits assumed): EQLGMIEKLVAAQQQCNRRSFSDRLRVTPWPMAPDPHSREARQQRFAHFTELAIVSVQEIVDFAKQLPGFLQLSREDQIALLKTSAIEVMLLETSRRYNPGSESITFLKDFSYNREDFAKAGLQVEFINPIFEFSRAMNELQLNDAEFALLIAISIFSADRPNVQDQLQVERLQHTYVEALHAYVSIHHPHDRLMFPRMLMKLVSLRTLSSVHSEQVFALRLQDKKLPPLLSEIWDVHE
- RUN_DESCRIPTION: LanthaScreen TR-FRET Liver X Receptor Coactivator Assay, LXR alpha-LBD (co-activator recruitment; IP and % Emax relative to T0901317)
- Type: biochemical
- APPLIED_CONDITIONS: efficacy at max dose in relation to reference T0901317, LXR alpha-LBD; read-out: LXR alpha actiivty at max dose (%)
MEASURED_METRIC: Emax (%)

COMPOUND	Emax (%)
CCN(CC)C(=O)c1ccc(N2CCC(CCCN(C)C(=O)[C@](O)(c3cccc(OC)c3)C(F)(F)F)CC2)cc1Cl	0
CN(C)C(=O)c1ccc(N2CCC3(CC2)CC3CCCN(C)C(=O)C(C)(C)c2ccccc2)cc1Cl (stereo not shown)	0
CN(C)C(=O)c1ccc(N2CCC(CCCNC(=O)C(O)(c3ccccc3)C(F)(F)F)CC2)cc1Cl (stereo not shown)	14

P: COc1cccc([C@@](O)(C(=O)N(C)CCCC2CCN(c3ccc(C(=O)NC(C)C)c(Cl)n3)CC2)C(F)(F)F)c1
Q: CN(C)C(=O)c1ccc(N2CCC([C@@H]3C[C@H]3CNC(=O)[C@](O)(c3ccccc3)C(F)(F)F)CC2)nc1Cl
R: CN(C)C(=O)c1ccc(N2CCC(F)(CCCN(C)C(=O)[C@](O)(c3ccccc3)C(F)(F)F)CC2)nc1Cl
S: CC(C)NC(=O)c1ccc(N2CCC3(CC2)C[C@@H]3CCN(C)C(=O)[C@](O)(c2ccccc2)C(F)(F)F)cc1Cl
*Q* Task field, ranking: reported Emax, descending order. Labels, requested order.
*A* S, P, Q, R

----------
- MEASURED_ON: GST tagged LXRalpha LBD (ligand binding domain) (Homo sapiens, UniProt Q13133)
- Construct: purchased Invitrogen pv4655
- Sequence (Q13133 209-447 limits assumed): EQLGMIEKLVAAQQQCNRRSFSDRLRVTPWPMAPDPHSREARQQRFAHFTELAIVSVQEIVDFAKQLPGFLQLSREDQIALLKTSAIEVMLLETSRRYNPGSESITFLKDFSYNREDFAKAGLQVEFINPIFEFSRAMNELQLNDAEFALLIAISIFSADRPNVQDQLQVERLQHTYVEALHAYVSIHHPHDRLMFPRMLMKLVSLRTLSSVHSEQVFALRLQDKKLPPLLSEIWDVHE
- RUN_DESCRIPTION: LanthaScreen TR-FRET Liver X Receptor Coactivator Assay, LXR alpha-LBD (co-activator recruitment; IP and % Emax relative to T0901317)
- Type: biochemical
- APPLIED_CONDITIONS: efficacy at max dose in relation to reference T0901317, LXR alpha-LBD; read-out: LXR alpha actiivty at max dose (%)
MEASURED_METRIC: Emax (%)

a: CN(C)C(=O)c1ccc(N2CCC(CCCNC(=O)[C@](O)(c3cccc(OC4CC4)c3)C(F)(F)F)CC2)nc1Cl
b: CN(C)C(=O)c1ccc(N2CCC(C[C@H]3C[C@H]3CN(C)C(=O)[C@](O)(c3ccccc3)C(F)(F)F)CC2)nc1Cl
c: CN(C)C(=O)c1ccc(N2CCC(CCCN(C)C(=O)[C@](O)(c3cccc(OC4CC4)c3)C(F)(F)F)CC2)nc1Cl
d: COc1ccccc1[C@]1(C(=O)N(C)CCCC2CCN(c3ccc(C(=O)N(C)C)c(Cl)n3)CC2)CCCO1
e: COc1cccc([C@@](O)(C(=O)N(C)CCCC2CCN(c3ccc(C(=O)N4CC[C@@H](CO)C4)c(Cl)n3)CC2)C(F)(F)F)c1
*Q* Place the item with the largest Emax first, then continue in falling order, using the list above. Labels, requested order.
*A* d, b, e, c, a
(d: 24%, b: 12%, e: 4%, c: 0%, a: -8%)

a: COc1cccc([C@](O)(C(=O)N(C)CCCC2CCN(c3ccc(C(=O)N(C)C)c(Cl)n3)CC2)C(F)F)c1
b: CN(C)C(=O)c1ccc(N2CCC(CCCN(C)C(=O)C3(C(F)(F)F)CCCO3)CC2)nc1Cl (stereo not shown)
*Q* Identify the entry with the smaller Emax: a or b . Identify your selection by its label.
*A* a
(a: 0%, b: 43%)

----------
- MEASURED_ON: GST tagged LXRbeta LBD (ligand binding domain) (Homo sapiens, UniProt P55055)
- Construct: purchased Invitrogen pv4658.pps
- Sequence (P55055 222-460 limits assumed): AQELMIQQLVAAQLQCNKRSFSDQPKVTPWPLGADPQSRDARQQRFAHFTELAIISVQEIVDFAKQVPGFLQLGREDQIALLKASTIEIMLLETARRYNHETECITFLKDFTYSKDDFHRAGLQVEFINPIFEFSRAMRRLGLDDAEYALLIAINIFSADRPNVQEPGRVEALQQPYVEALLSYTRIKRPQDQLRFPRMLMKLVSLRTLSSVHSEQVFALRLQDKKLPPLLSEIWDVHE
- RUN_DESCRIPTION: LanthaScreen TR-FRET Liver X Receptor Coactivator Assay, LXR beta-LBD (co-activator recruitment; IP and % Emax relative to T0901317)
- Type: biochemical
- APPLIED_CONDITIONS: efficacy at max dose in relation to reference T0901317, LXR beta-LBD; read-out: LXR beta actiivty at max dose (%)
MEASURED_METRIC: Emax (%)

Below are worked cases with known answers.
MOLECULE	MEASURED_METRIC	RECORDED_RESULT
COc1cccc([C@@](O)(C(=O)N(C)CC2CC(C3CCN(c4ccc(C(=O)N(C)C)c(Cl)n4)CC3)C2)C(F)(F)F)c1 (stereo partly drawn)	Emax	64
COc1cccc([C@@](O)(C(=O)N(C)CCCC2CCN(c3cc(Cl)c(C(=O)N(C)C)cn3)CC2)C(F)(F)F)c1	Emax	30
CN(C)C(=O)c1ccc(N2CCC(CCCN(C)C(=O)C(O)C(F)(F)F)CC2)nc1Cl (stereo not drawn)	Emax	46
COc1cccc([C@@](O)(C(=O)N(C)CCC2CC23CCN(c2ccc(C(=O)NC(C)C)c(Cl)n2)CC3)C(F)(F)F)c1 (stereo in doubt)	Emax	58

1: CN(C)C(=O)c1ccc(N2CCC(C[C@@H]3C[C@H]3CN(C)C(=O)[C@](O)(c3ccccc3)C(F)(F)F)CC2)nc1Cl
2: CNC(=O)c1ccc(N2CCC3(CC2)C[C@H]3CCN(C)C(=O)[C@](O)(c2ccccc2)C(F)(F)F)cc1Cl [Example 7-24]
*Q* Which record would sort first by descending Emax, 1 or 2 ? Identify your selection by its label.
*A* 1

I: CN(C)C(=O)c1ccc(N2CCC(C)(CCCN(C)C(=O)[C@](O)(c3cccc(OC(F)(F)F)c3)C(F)(F)F)CC2)nc1Cl
II: CN(C)C(=O)c1ccc(N2CCC(CC3CC(NC(=O)[C@](O)(c4ccccc4)C(F)(F)F)C3)CC2)cc1Cl (stereo partly drawn)
*Q* Which record would sort first by descending Emax, I or II ? Identify your selection by its label.
*A* II

I: CN(C)C(=O)c1ccc(N2CCC(CCCN(C)C(=O)[C@@](O)(c3cccc(OC(F)F)c3)C(F)(F)F)CC2)nc1Cl
II: CN(C)C(=O)c1ccc(N2CCC(CCCN(C)C(=O)[C@](C)(O)c3ccccc3)CC2)nc1Cl
III: CN(C)C(=O)c1ccc(N2CCC(CCCN(C)C(=O)C3(c4ccccc4)OCCO3)CC2)nc1Cl
IV: CN(C)C(=O)c1ccc(N2CCC(CCCNC(=O)C(O)(c3ccccc3)C(F)(F)F)CC2)cc1Cl (stereo not drawn)
*Q* Task field, ranking: reported Emax, descending order. Labels, requested order.
*A* IV, I, II, III

A: CN(CC[C@H]1CC12CCN(c1ccc(C(=O)NC3CC3)c(Cl)c1)CC2)C(=O)[C@](O)(c1ccccc1)C(F)(F)F
B: COc1cccc([C@@](O)(C(=O)N(C)CC[C@@H]2CC23CCN(c2ccc(C(=O)NC(C)C)c(Cl)c2)CC3)C(F)(F)F)c1
*Q* Which record would sort first by descending Emax, A or B ? Identify your selection by its label.
*A* A
(A: 60%, B: 32%)
